Origin of values: paper PMC10357933

# subject_of_test: UniProtKB P0C6X7
So I've got a bunch of compounds here, and I need their IC50 values.
Give bare numbers, in µM.

> print(dat)
                                   compound   subject.of.test  readout.kind  unit.name  recorded.value
1  COc1ccc2c(c1)n(C(C)C)c[n+]2C(C)C.[Ag][I]  UniProtKB P0C6X7          IC50         µM            13.7

// next item, IC50 requested
Give the measured IC50 of O=[N+]([O-])[O-].[Ag+] [AgNO3, silver nitrate, reference compound] .
12.1

###

# subject_of_test: 3CL^pro (SARS-CoV-2) (Severe acute respiratory syndrome coronavirus 2)
# Type: biochemical
# condition_description: 3CL^pro, 50 μM, ± SD of 2 experiments
readout_kind: Percentage of activity of the enzyme in presence of 50 μM of the test compound (%)
Numbers only, in %.

These solved cases illustrate the format of a correct answer.
> print(dat)
                                   molecule                           subject.of.test  unit.name  recorded.value
1  COc1ccc2c(c1)n(C(C)C)c[n+]2C(C)C.[Cl][Ag] [Ag-4a]  3CL^pro (SARS-CoV-2) (Severe acute respiratory syndrome coronavirus 2)          %             115
2  CC(C)n1c[n+](C(C)C)c2ccccc21.[Ag][I] [Ag-3b]  3CL^pro (SARS-CoV-2) (Severe acute respiratory syndrome coronavirus 2)          %             111
3  COc1ccc2c(c1)n(C(C)C)c[n+]2C(C)C.[Ag][I] [Ag-4b]  3CL^pro (SARS-CoV-2) (Severe acute respiratory syndrome coronavirus 2)          %             116
4  CCn1c[n+](CC)c2ccc(OC)cc21.[Cl][Ag] [Ag-2a]  3CL^pro (SARS-CoV-2) (Severe acute respiratory syndrome coronavirus 2)          %              98
5  CCn1c[n+](CC)c2ccc(OC)cc21.[Ag][I] [Ag-2b]  3CL^pro (SARS-CoV-2) (Severe acute respiratory syndrome coronavirus 2)          %             115

Provide each entry's Percentage of activity of the enzyme in presence of 50 μM of the test compound from the list below.
1. CC(C)n1c[n+](C(C)C)c2ccccc21.[Cl][Ag] [Ag-3a]
2. O=[N+]([O-])[O-].[Ag+] [AgNO3, silver nitrate, reference compound]
3. CCn1c[n+](CC)c2ccccc21.[Ag][I] [Ag-1b]

[116, 97, 110]

Give the measured Percentage of activity of the enzyme in presence of 50 μM of the test compound of CCn1c[n+](CC)c2ccccc21.[Cl][Ag] [Ag-1a] .
106

###

# test_name: Conductometry in DMSO
# Type: physicochemical
# condition_description: 1.0 mM solution in DMSO, 48 h
Conductivity ΛM less than 7 S mol^−1 cm^2 is Met; Conductivity ΛM greater than or equal to 7 S mol^−1 cm^2 is Not met.

Use these answered entries as a reference point.
> print(dat)
                                   compound  assigned.label
1        CCn1c[n+](CC)c2ccc(OC)cc21.[Ag][I]         Not met
2  CC(=O)O.[Ag+].c1ccc(CN2[CH-]N(Cc3ccccc3)C(c3ccccc3)=C2c2ccccc2)cc1 [SBC3, reference compound]             Met
3       CCn1c[n+](CC)c2ccc(OC)cc21.[Cl][Ag]             Met
4  O=[N+]([O-])[O-].[Ag+] [AgNO3, silver nitrate, reference compound]         Not met

Does this compound meet the criterion Conductivity ΛM < 7 S mol^−1 cm^2? `COc1ccc2c(c1)n(C(C)C)c[n+]2C(C)C.[Cl][Ag]`
Met

Here is the next compound: `CCn1c[n+](CC)c2ccccc21.[Ag][I]`
Not met

Here is the next compound: `CCn1c[n+](CC)c2ccccc21.[Cl][Ag]`
Met

Here is the next compound: `CC(C)n1c[n+](C(C)C)c2ccccc21.[Ag][I]`
Met

Here is the next compound: `CC(C)n1c[n+](C(C)C)c2ccccc21.[Cl][Ag]`
Met

Here is the next compound: `COc1ccc2c(c1)n(C(C)C)c[n+]2C(C)C.[Ag][I]`
Not met

###

# subject_of_test: 3CL^pro (SARS-CoV-2) (Severe acute respiratory syndrome coronavirus 2, UniProt P0DTD1)
pIC50: −log10 of the molar value.
readout_kind: pIC50

Give the measured pIC50 of CC(=O)O.[Ag+].c1ccc(CN2[CH-]N(Cc3ccccc3)C(c3ccccc3)=C2c2ccccc2)cc1 [SBC3, reference compound] .
< 4.30

###

So I've got a bunch of compounds here, and I need their Conductivity ΛM values.
# test_name: Conductometry in DMSO
# Type: physicochemical
# condition_description: 1.0 mM solution in DMSO, start

These solved cases illustrate the format of a correct answer.
> print(dat)
                                   compound     readout.kind      recorded.value
1        CCn1c[n+](CC)c2ccc(OC)cc21.[Ag][I]  Conductivity ΛM  9.19 S mol^−1 cm^2
2      CC(C)n1c[n+](C(C)C)c2ccccc21.[Ag][I]  Conductivity ΛM  6.67 S mol^−1 cm^2
3       CCn1c[n+](CC)c2ccc(OC)cc21.[Cl][Ag]  Conductivity ΛM  2.94 S mol^−1 cm^2
4           CCn1c[n+](CC)c2ccccc21.[Cl][Ag]  Conductivity ΛM  3.00 S mol^−1 cm^2
5  CC(=O)O.[Ag+].c1ccc(CN2[CH-]N(Cc3ccccc3)C(c3ccccc3)=C2c2ccccc2)cc1 [SBC3, reference compound]  Conductivity ΛM  2.15 S mol^−1 cm^2

Provide each entry's Conductivity ΛM from the list below.
1. COc1ccc2c(c1)n(C(C)C)c[n+]2C(C)C.[Ag][I]
2. CCn1c[n+](CC)c2ccccc21.[Ag][I]
3. O=[N+]([O-])[O-].[Ag+] [AgNO3, silver nitrate, reference compound]
4. COc1ccc2c(c1)n(C(C)C)c[n+]2C(C)C.[Cl][Ag]
5. CC(C)n1c[n+](C(C)C)c2ccccc21.[Cl][Ag]

["6.72 S mol^−1 cm^2", "8.44 S mol^−1 cm^2", "38 S mol^−1 cm^2", "2.15 S mol^−1 cm^2", "2.34 S mol^−1 cm^2"]

###

# subject_of_test: PL^pro (SARS-CoV-2) (Severe acute respiratory syndrome coronavirus 2, UniProt P0DTD1)
# test_name: biochemical
# condition_description: read-out: IC50 PL^pro (SARS-CoV-2)
readout_kind: IC50
# include the unit after the value

Missing value: IC50, PL^pro (SARS-CoV-2) (Severe acute respiratory syndrome coronavirus 2, UniProt P0DTD1), entry CC(=O)O.[Ag+].c1ccc(CN2[CH-]N(Cc3ccccc3)C(c3ccccc3)=C2c2ccccc2)cc1 [SBC3, reference compound] . Fill in?
260 nM

###

# subject_of_test: PL^pro (SARS-CoV-2) (Severe acute respiratory syndrome coronavirus 2, UniProt P0DTD1)
# test_name: biochemical
# condition_description: read-out: IC50 PL^pro (SARS-CoV-2); mean ± SD of 2 independent experiments
So I've got a bunch of compounds here, and I need their pIC50 values.
Answers are plain numbers, as −log10 of the molar value.

These solved cases illustrate the format of a correct answer.
> print(dat)
                                   compound                           subject.of.test  recorded.value
1    CCn1c[n+](CC)c2ccccc21.[Ag][I] [Ag-1b]  PL^pro (SARS-CoV-2) (Severe acute respiratory syndrome coronavirus 2, UniProt P0DTD1)            6.62
2  CC(C)n1c[n+](C(C)C)c2ccccc21.[Cl][Ag] [Ag-3a]  PL^pro (SARS-CoV-2) (Severe acute respiratory syndrome coronavirus 2, UniProt P0DTD1)            6.68

Provide each entry's pIC50 from the list below.
1. CC(C)n1c[n+](C(C)C)c2ccccc21.[Ag][I] [Ag-3b]
2. CCn1c[n+](CC)c2ccccc21.[Cl][Ag] [Ag-1a]
3. CCn1c[n+](CC)c2ccc(OC)cc21.[Cl][Ag] [Ag-2a]
4. COc1ccc2c(c1)n(C(C)C)c[n+]2C(C)C.[Ag][I] [Ag-4b]
5. COc1ccc2c(c1)n(C(C)C)c[n+]2C(C)C.[Cl][Ag] [Ag-4a]
6. CCn1c[n+](CC)c2ccc(OC)cc21.[Ag][I] [Ag-2b]

1: 6.72; 2: 6.68; 3: 6.74; 4: 6.41; 5: 6.66; 6: 6.37

Give the measured pIC50 of O=[N+]([O-])[O-].[Ag+] [AgNO3, silver nitrate, reference compound] .
6.15
